experiment: chemical genetic growth profiling, strain panel (AID 1159580);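 note: tested at 20 µM; growth read once vehicle control cultures reached saturation at 30 °C; lower values mean less growth of the strain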; details: S. cerevisiae deletion strains, growth OD, locus YNL128W, strain TEP1
Screen size: about 5,500 compounds; about 2,000 (36%) were called active. Another 18% or so got no clear call; they are omitted. Cut-off read from the data, not from the text of the source: active = normalized growth mostly below about 0.91 (no sharp cut-off); inconclusive = no clear call, values can overlap the other calls; inactive = mostly above about 0.92. Some of the results follow.
Just give me one of these, please: t for active, f for inactive

Tell me the recorded outcome of this test for O=C(O)c1cc(=O)c2ccc(Cl)cc2[nH]1 .
f

Now try CC(C)Oc1cccnc1N(C)C1CCN(Cc2ccccc2)CC1 .
f

Now try CC(=O)/C(=C\Nc1ncccn1)S(=O)(=O)c1ccc(Cl)cc1 .
f

Now try COc1ccc2cc1Oc1ccc(cc1)C[C@H]1c3cc(c(OC)cc3CCN1C)Oc1c(OC)c(OC)cc3c1[C@H](C2)N(C)CC3 .
f

Now try NC(N)=NOCC[C@H](N)C(=O)O .
f

Now try CO[C@H]1C[C@H](O[C@H]2[C@H](C)[C@@H](OC3O[C@H](C)C[C@H](N(C)C)[C@H]3O)[C@@H](C)C[C@]3(CO3)C(=O)[C@H](C)[C@@H](O)[C@@H](C)[C@@H](C)OC(=O)[C@@H]2C)O[C@@H](C)[C@@H]1O (some centres not stated) .
f

Now try O=C(O)[C@H]1NCCC[C@H]1C(=O)O .
f

Now try COc1ccc(C[C@H]2NC[C@H](O)[C@H]2OC(C)=O)cc1 .
t

Now try CN(C)CCCCSC(=N)N .
f

Now try COc1ccc(-c2coc3c(O)c(OC)ccc3c2=O)cc1 .
f

Now try COc1ccc(-c2coc3c(OC)c(OC)cc(O)c3c2=O)cc1 .
f

Now try COc1ccc(S(=O)(=O)Nc2cc(C)c(C)cc2[N+](=O)[O-])c(OC)c1 .
f

Now try CCCCCC(C)N (configuration not stated) .
f

Now try Cc1cc(=O)c2c(O)c(C)c(O)cc2o1 .
f

Now try O=C1CC(c2ccc(O)cc2)Oc2ccccc21 (configuration not stated) .
f

Now try COc1c2c(c(CC=C(C)C)c3oc(=O)c(-c4ccc(O)cc4)c(O)c13)OC(C)(C)C=C2 .
f

Now try O=C1C[C@@H](c2ccccc2)Oc2cc(O)cc(O)c21 .
f

Now try CC(C(=O)O)c1ccc2c(c1)[nH]c1ccc(Cl)cc12 (configuration not stated) .
f

Now try COc1cc(OC)c2c(c1)OC(c1ccccc1)CC2=O (configuration not stated) .
f

Now try COC(=O)c1c(Cl)c(Cl)c(C(=O)OC)c(Cl)c1Cl .
f

Now try CC(=C(CCOP(=O)(O)O)SC(=O)c1ccccc1)N(C=O)Cc1cnc(C)nc1N .
f

Now try NC(=O)N1c2ccccc2CC(=O)c2ccccc21 .
f
